- tested.system: human recombinant lysosomal α-glucosidase GAA (Myozyme) (Homo sapiens)
- Construct: purchased Genzyme
- test.summary: fluorogenic substrate (4MU-α-D-glucopyranoside) assay on rhGAA
- Assay type: biochemical
- reported.conditions: Table S2; 4-MU alpha glucoside substrate; read-out: IC50 on rhGAA
pIC50: −log10 of the molar value.
compounds and their reported pIC50
endpoint: pIC50

OC[C@@H]1[C@@H](O)[C@H](O)[C@@H](O)CN1CCCCCOCc1ccc(-c2ccc(Cl)cc2)cc1 ... 7.03
CC(C)=CCC/C(C)=C/CC/C(C)=C/COCCCCCN1C[C@H](O)[C@@H](O)[C@H](O)[C@H]1CO ... 6.31
OC[C@H]1N[C@H](CCCCCOCC23CC4CC(CC(C4)C2)C3)[C@H](O)[C@@H](O)[C@@H]1O ... 5.40
CC(C)=CCC/C(C)=C/CC/C(C)=C/CN1C[C@H](O)[C@@H](O)[C@H](O)[C@H]1CO ... 6.49
OC[C@@H]1[C@@H](O)[C@H](O)[C@@H](O)CN1CCCCCOCc1ccc(-c2ccccc2)cn1 ... 7.43
OC[C@@H]1[C@@H](O)[C@H](O)[C@@H](O)CN1CCCCCOCC12CC3CC(C1)CC(COCCCCCN1C[C@H](O)[C@@H](O)[C@H](O)[C@H]1CO)(C3)C2 ... 6.55
OC[C@@H]1[C@@H](O)[C@H](O)[C@@H](O)CN1CCCCCOCc1ccc(-c2ccccc2)cc1C(F)(F)F ... 7.74

----------
- tested.system: human recombinant lysosomal α-glucosidase GAA (Myozyme) (Homo sapiens, UniProt P10253)
- Construct: purchased Genzyme
- test.summary: fluorogenic substrate (4MU-α-D-glucopyranoside) assay on rhGAA
- Format: biochemical
- reported.conditions: Table S2; 4-MU alpha glucoside substrate; listed as 33; read-out: IC50 on rhGAA
endpoint: IC50 (nM)

CCCCCCCCN1C[C@H](O)[C@@H](O)[C@H](O)[C@H]1CO ... 540

----------
- tested.system: recombinant human GAA (rhGAA, Myozyme) (Homo sapiens)
- Construct: purchased Genzyme
- test.summary: competitive FluoPol-ABPP assay on rhGAA with TAMRA-ABP II;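 note: fluorescence polarization read at 540 nm excitation and 590 nm emission, background-corrected, normalized to uninhibited probe labelling as 100% and excess cyclosulfate as 0%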
- Type: biochemical
- reported.conditions: library screen, 5 μM inhibitor, 25 nM ABP II
endpoint: GAA FP% (residual FP-signal)

OC[C@@H]1[C@@H](O)[C@H](O)[C@@H](O)CN1CCCCCOCc1ccc(-c2ccccc2)cc1 ... 0.6%
OC[C@@H]1[C@@H](O)[C@H](O)[C@@H](O)CN1CCCCCOCc1ccc(-c2cc(C(F)(F)F)cc(C(F)(F)F)c2)cc1 ... 1.5%
OC[C@@H]1[C@@H](O)[C@H](O)[C@@H](O)CN1CCCCCOCC(COCCCCCN1C[C@H](O)[C@@H](O)[C@H](O)[C@H]1CO)C12CC3CC(CC(C3)C1)C2 ... 0.4%
OC[C@@H]1[C@@H](O)[C@H](O)[C@@H](O)CN1CCCCCOCc1cccc(-c2ccccc2)c1 ... 1.8%

----------
- tested.system: human recombinant lysosomal α-glucosidase GAA (Myozyme) (Homo sapiens)
- Construct: purchased Genzyme
- test.summary: fluorogenic substrate (4MU-α-D-glucopyranoside) assay on rhGAA
- Assay type: biochemical
- reported.conditions: Table S2; 4-MU alpha glucoside substrate; read-out: IC50 on rhGAA
Rule: IC50 below 30 nM gives 1. Equal to or above 30 nM gives -1.

C[C@@H](OCCCCCN1C[C@H](O)[C@@H](O)[C@H](O)[C@H]1CO)c1ccc(-c2ccccc2)cc1 ... -1
COc1ccc(-c2ccc(COCCCCCN3C[C@H](O)[C@@H](O)[C@H](O)[C@H]3CO)cc2)cc1 ... 1
OC[C@@H]1[C@@H](O)[C@H](O)[C@@H](O)CN1CCCCCOCc1ccc(-c2ccccc2)cc1 [Compound 6] ... -1
OC[C@@H]1[C@@H](O)[C@H](O)[C@@H](O)CN1CCCCCOCc1ccc(-c2ccc(C(F)(F)F)cc2)cc1 ... -1
OC[C@@H]1[C@@H](O)[C@H](O)[C@@H](O)CN1CCCC(F)(F)COCc1ccc(-c2ccccc2)cc1 ... 1
CCCCN1C[C@H](O)[C@@H](O)[C@@H](O)[C@H]1CO ... -1
OC[C@@H]1[C@@H](O)[C@H](O)[C@@H](O)CN1CCCCCOCc1ccc(-c2cccc(F)c2)cc1 ... 1
